pIC50: −log10 of the molar value.
Multiple publications report pIC50 for UniProtKB Q99640; what follows is a combined list.

>  <Molecule>
Cc1cn2cc(C(N)=O)c(N)c(-c3cccc(O)c3C)c2n1

>  <pIC50>
6.30 to 7.30

$$$$
>  <Molecule>
Cc1c(-c2c(N)c(C(N)=O)nc3cccnc23)cnn1C

>  <pIC50>
≤ 5.30

$$$$
>  <Molecule>
Cc1c(O)cccc1-c1c(N)c(C(N)=O)nc2c1c(C(N)=O)nn2C

>  <pIC50>
> 7.30

$$$$
>  <Molecule>
COc1ccc2nc(C(N)=O)c(N)c(-c3c(C)ccc(O)c3C)c2c1

>  <pIC50>
6.30 to 7.30

$$$$
>  <Molecule>
Cc1c(Cl)cncc1-c1c(N)c(C(N)=O)nc2c1c(C#N)cn2C

>  <pIC50>
6.30 to 7.30

$$$$
>  <Molecule>
CC(C)n1c(=O)c2cnc(Nc3ccc4c(c3)CCNC4)nc2n1-c1ccc(F)c(C(C)(C)F)n1

>  <pIC50>
5.18

$$$$

Write pIC50 of NC(=O)c1cc2nccnc2c(-c2c(Cl)ccc3[nH]ncc23)c1N (atropisomer, axis not shown) ; system used: UniProtKB Q99640
5.30 to 6.00

Write pIC50 of Cc1c(O)cncc1-c1c(N)c(C(N)=O)nc2c1NCCC2 ; system used: UniProtKB Q99640
5.30 to 6.00

Write pIC50 of Cc1c(O)cccc1-c1c(N)c(C(N)=O)nc2cccc(C(N)=O)c12 ; system used: UniProtKB Q99640
6.30 to 7.30

Write pIC50 of Cc1ccc(O)c(C)c1-c1cc(C(N)=O)nc2c1c(C#N)cn2CC(F)(F)F (single isomer, unassigned) ; system used: UniProtKB Q99640
≤ 5.30

Write pIC50 of NC(=O)c1cc(-c2cccc3[nH]ncc23)c2nccnc2c1 ; system used: UniProtKB Q99640
≤ 5.30

Write pIC50 of Cc1ccc(O)c(C)c1-c1cc(C(N)=O)nc2c1c(C#N)cn2C ; system used: UniProtKB Q99640
> 7.30

Write pIC50 of COc1ccc2nc(C(N)=O)c(N)c(-c3cncc(C(F)F)c3C)c2n1 ; system used: UniProtKB Q99640
6.00 to 6.30

Write pIC50 of Cc1ccc(O)c(C)c1-c1c(N)c(C(N)=O)nc2c1nc(C)n2C(C)C (single isomer, unassigned) ; system used: UniProtKB Q99640
> 7.30

Write pIC50 of CCOc1ccc2nc(C(N)=O)c(N)c(-c3cccc(O)c3C)c2n1 ; system used: UniProtKB Q99640
> 7.30

Write pIC50 of CCn1c(=O)c2cnc(Nc3ccc4c(c3)CCNC4)nc2n1-c1cccc(C2(C#N)CC2)n1 ; system used: UniProtKB Q99640
6.16

Write pIC50 of Cc1ccc(O)c(C)c1-c1cc(C(N)=O)nc2cn[nH]c12 ; system used: UniProtKB Q99640
5.30 to 6.00
